Just for reference, patent US9856242B2 is where these values come from.

Reported IC50 values are given for each entry in this list.
tested on: HeLa-MaTu-ADR cells; experiment: Proliferation assay (Method 3), HeLa-MaTu-ADR; assay type: cell-based; conditions: 96 h; multidrug-resistant human cervical carcinoma, 4 days, crystal violet; read-out: Inhibition of HeLa-MaTu-ADR cell proliferation IC50
Only the number, expressed in nM, is required.

>>> test_result("Cc1cc(CS(C)(=O)=O)cc(Nc2cc(-c3ccc(F)c4ccoc34)c(F)cn2)n1")
18
>>> test_result("CS(=O)(=O)Cc1ccnc(Nc2cc(-c3ccc(F)c4ccoc34)c(F)cn2)c1")
36
>>> test_result("CS(=O)(=O)Cc1cc(F)nc(Nc2cc(-c3ccc(F)c4ccoc34)c(F)cn2)c1")
24
>>> test_result("CS(=O)(=O)Cc1ccnc(Nc2cc(-c3cccc4ccoc34)c(F)cn2)c1")
68

# next compound below
Challenge: Given the entry CS(=O)(=O)Cc1cc(Nc2cc(-c3ccc(F)c4ccoc34)c(F)cn2)nc(C(F)(F)F)c1 , report its measured IC50.
Response given: 23
